system: hrtAB-driven expression of the xylE reporter gene; assay: XylE reporter assay (hrtAB promoter-xylE), Newman; type: cell-based, Staphylococcus aureus; conditions: level of XylE induction at 50.0 uM of the compound
I'd appreciate it if you could supply XylE (50.0) values for the items below.
API doc: respond with a numeric literal and nothing else, no unit.

Short answer on hrtAB-driven expression of the xylE reporter gene for `C/C=C/C=N/Nc1nnc2c(n1)[nH]c1ccccc12` , XylE (50.0): 1

Form: item `O=c1oc2ccccc2c(O)c1C(c1ccc([N+](=O)[O-])o1)c1c(O)c2ccccc2oc1=O` ; test system hrtAB-driven expression of the xylE reporter gene; XylE (50.0): 0

Measured on hrtAB-driven expression of the xylE reporter gene, `O=C(COc1nsnc1N1CCOCC1)Nc1ccccc1` has a documented XylE (50.0) of 0.03

Record COc1ccccc1NC1=C/C(=N\S(=O)(=O)c2ccc(Br)cc2)c2ccccc2C1=O [drawing 81] ; system hrtAB-driven expression of the xylE reporter gene; XylE (50.0) = 1

Item CC(NC(=O)C1(c2ccccc2)CCCC1)C1COc2ccccc2O1 (stereo not shown) [drawing 45] ; assay system hrtAB-driven expression of the xylE reporter gene; XylE (50.0) reported as 0.05

Tested on hrtAB-driven expression of the xylE reporter gene: CCCCCCC(=O)NC(NC(=S)Nc1ccccc1O)C(Cl)(Cl)Cl (stereo not shown) . Observed XylE (50.0): 0.03

Field XylE (50.0) (system: hrtAB-driven expression of the xylE reporter gene) for entry `NS(=O)(=O)c1ccc(NC(=O)CCCOc2ccc(Cl)cc2Cl)cc1` = 0

Simply: `CC(C)(C)c1ccc(O)c(NC(=S)NC(=O)c2cc3ccccc3o2)c1` , hrtAB-driven expression of the xylE reporter gene, XylE (50.0) = 1

Note to self: XylE (50.0) of `COC(=O)CCNc1nc(-c2ccc(Br)cc2)nc2ccccc12` with hrtAB-driven expression of the xylE reporter gene was 0.8

Record CCCN1C(=O)/C(=C2/C(=O)N(CC(=O)Nc3ccc(Cl)cc3)c3ccccc32)SC1=S [drawing 28] has hrtAB-driven expression of the xylE reporter gene XylE (50.0) equal to 0.02

---

tested on: hrtAB-driven expression of the xylE reporter gene; assay: XylE reporter assay (hrtAB promoter-xylE), Newman; format: cell-based, Staphylococcus aureus; settings: level of XylE induction at 50.0 uM of the compound
Classification field: fulfilled = XylE (50.0) at or over 1; not fulfilled = XylE (50.0) under 1.

Query :: Could you tell me if the measured XylE (50.0) of `Cc1ccc(CSCc2ccc(C(=O)NCc3ccc(F)cc3)o2)cc1` reaches 1 or more?
Result :: fulfilled

Query :: Confirm if XylE (50.0) reported for the molecule `COc1ccc(-c2cc(-c3ccc(C)cc3)[nH]n2)c(O)c1` is 1 or above.
Result :: not fulfilled

Query :: Say whether `NS(=O)(=O)c1ccc(Nc2nc(-c3ccc(Cl)cc3)cs2)cc1` shows XylE (50.0) of 1 or more.
Result :: not fulfilled

Query :: Reported XylE (50.0) reaches at least 1 for `Oc1ccccc1-c1nc(NC2CCCC2)c2ccccc2n1` ?
Result :: not fulfilled

---

Test system: HssRS-dependent hrtAB expression
Assay: Luminescence-based assay to monitor HssRS-dependent hrtAB expression (phrtABlux reporter), Newman
Assay type: cell-based, Staphylococcus aureus
Conditions: Staphylococcus aureus, NEWMAN, read-out: % Lumi, luminescence induced by the compound compared to the heme control (82.5 nM) in the same plate; Newman
Description: With reference to Table 1, “Luminescence” refers to the raw luminescence value obtained in a luminomter. “Control (82.5 nm)” refers to the luminescence value obtained from heme at 82.5 nM as a positive control in the same plate as the experimental. “% lum” is the percentage of luminescence induced by the compound as compared to the heme control in the same plate. […] All of these assays are described in the application. […] “N/T” indicates the test was not performed. […]
Measured Quantity: activation at 0.0825 µM (%)
Supply the numeric figure in %, leaving out any unit text.

Form: item `O=S(=O)(Nc1cc(Cl)ccc1Cl)c1ccc(Cl)cc1` ; test system HssRS-dependent hrtAB expression; activation at 0.0825 µM: 146

Measured on HssRS-dependent hrtAB expression, Cc1cccc(C(=O)N2N=C(c3cccc(Br)c3)CC2(C)C(F)(F)F)c1 (stereo not shown) has a documented activation at 0.0825 µM of 572

Record for `COc1ccc(-c2cc(-c3ccc(C)cc3)[nH]n2)c(O)c1` under target or system HssRS-dependent hrtAB expression: activation at 0.0825 µM reported as 180

activation at 0.0825 µM for HssRS-dependent hrtAB expression with input `COc1cc(OC)cc(C(=O)Nc2ccc(-c3nc4cc(C)ccc4o3)cc2)c1` equals 345

Item `Cc1cccc(NC(=S)N/N=C/c2cc(Br)ccc2O)c1` ; assay system HssRS-dependent hrtAB expression; activation at 0.0825 µM reported as 161

activation at 0.0825 µM for HssRS-dependent hrtAB expression with input `O=[N+]([O-])c1ccc(O)c(/C=N/c2ccccc2-c2nc3ccccc3s2)c1` equals 630

Hey, HssRS-dependent hrtAB expression data for `CCN(CC)S(=O)(=O)c1cc(C(=O)NC2CCCCCC2)ccc1Cl` : activation at 0.0825 µM came out at 759

Item `O=C(Nc1ccncc1)c1ccc(COc2cc(Cl)ccc2Cl)cc1` ; assay system HssRS-dependent hrtAB expression; activation at 0.0825 µM reported as 597

activation at 0.0825 µM of COc1ccccc1NC1=C/C(=N\S(=O)(=O)c2ccc(Br)cc2)c2ccccc2C1=O [drawing 81] , assay on HssRS-dependent hrtAB expression, is 510

// assay HssRS-dependent hrtAB expression, entry O=[N+]([O-])c1ccc(O)c(C2NN=C(Cc3ccccc3)S2)c1 (stereo not shown) , activation at 0.0825 µM value = 871

Summary line: `CSc1ccc(NC=C2C(=O)CC(C)(C)CC2=O)cc1` , HssRS-dependent hrtAB expression, reported activation at 0.0825 µM = 161

Form field, activation at 0.0825 µM with HssRS-dependent hrtAB expression, item `O=C(Nc1ccc(NC(=O)c2cccs2)c(Cl)c1)c1cccs1` : 111

Here `CC1(C)CC(=O)C(=CNCc2ccc(F)cc2)C(=O)C1` was tested on HssRS-dependent hrtAB expression, and its activation at 0.0825 µM came to 120

For the molecule `O=C(/C=C/c1ccc([N+](=O)[O-])s1)Nc1ccc(I)cc1` , the measured activation at 0.0825 µM on HssRS-dependent hrtAB expression was 107

Reported HssRS-dependent hrtAB expression activation at 0.0825 µM for item `CCOC(=O)c1c(NC(=O)c2ccccc2)sc(C(C)=O)c1-c1ccccc1` was 109

Entry `Cc1ccc(-c2nnc(SCC(=O)NC3CCCC3)nc2-c2ccc(C)cc2)cc1` , HssRS-dependent hrtAB expression data, activation at 0.0825 µM value: 855

activation at 0.0825 µM value, target or system HssRS-dependent hrtAB expression, for `COc1ccc(/C=C/c2nc3ccccc3c(=O)n2-c2cccc(C(=O)O)c2)cc1` : 705

Entry `COc1ccc(CCNC(=O)C(=O)Nc2cccc(Cl)c2)cc1OC` ; assay system HssRS-dependent hrtAB expression; activation at 0.0825 µM recorded at 355

The observed activation at 0.0825 µM for `O=C(Nc1ccccc1C(=O)Nc1ccc(Cl)cc1)c1ccccc1` when tested with HssRS-dependent hrtAB expression stands at 92

Entry `C/C=C/C=N/Nc1nnc2c(n1)[nH]c1ccccc12` , tested on HssRS-dependent hrtAB expression, has a reported activation at 0.0825 µM of 202

Entry `C=CCc1ccccc1Oc1ccc(C(F)(F)F)cn1` ; assay system HssRS-dependent hrtAB expression; activation at 0.0825 µM recorded at 27.5

# value of activation at 0.0825 µM, HssRS-dependent hrtAB expression, item O=C1c2ccccc2C(=O)C1C1=NNC(c2ccccc2)C1 (stereo not shown) = 81.7

Tested on HssRS-dependent hrtAB expression: `Cc1cc(C)c(S(=O)(=O)Nc2ccc(O)c(-c3c(O)ccc4ccccc34)c2)cc1C` . Observed activation at 0.0825 µM: 354

Entry O=C(NC(=S)Nc1ccc(-c2nc3ccccc3s2)cc1)c1ccccc1[N+](=O)[O-] [drawing 23] , tested on HssRS-dependent hrtAB expression, has a reported activation at 0.0825 µM of 374

Assay HssRS-dependent hrtAB expression, sample `Brc1ccc(CN2CCN(c3ccccc3)CC2)o1` , activation at 0.0825 µM read: 39.3

# lookup: `Cc1cc(-c2ccc(N)cc2)nc2ccc3ccccc3c12` on HssRS-dependent hrtAB expression, activation at 0.0825 µM = 136

GET /values?item= Oc1c(-c2cc(-c3ccco3)[nH]n2)ccc2ccccc12 [drawing 65] &system= HssRS-dependent hrtAB expression returns activation at 0.0825 µM: 630

HssRS-dependent hrtAB expression assay, molecule O=C(N/N=C/c1ccc(-c2cccc(C(F)(F)F)c2)o1)C1COc2ccccc2O1 (stereo not shown) [drawing 49] , recorded activation at 0.0825 µM = 152

activation at 0.0825 µM for HssRS-dependent hrtAB expression with input `Cc1ccc(Nc2nc(-c3ccccc3O)nc3ccccc23)cc1` equals 360

HssRS-dependent hrtAB expression data for `O=c1oc2ccccc2c(O)c1C(c1ccc([N+](=O)[O-])o1)c1c(O)c2ccccc2oc1=O` ; its activation at 0.0825 µM: 559

Given the molecule `O=C(COc1nsnc1N1CCOCC1)Nc1ccccc1` and test system HssRS-dependent hrtAB expression, the measured activation at 0.0825 µM is 207

`O=C(Nc1ccc(C(F)(F)F)cc1)c1cc(S(=O)(=O)NCc2ccc(F)cc2)ccc1F` tested on HssRS-dependent hrtAB expression gave activation at 0.0825 µM: 493

HssRS-dependent hrtAB expression assay, molecule `COc1ccc(/N=c2\nc(-c3ccccc3)n(-c3ccc(C)cc3)s2)cc1` , recorded activation at 0.0825 µM = 266

Tested on HssRS-dependent hrtAB expression: COC(=O)C1=C(C)NC(=O)NC1c1cn(-c2ccccc2)nc1-c1ccc(OC)c(OC)c1 (stereo not shown) . Observed activation at 0.0825 µM: 866

Measured on HssRS-dependent hrtAB expression, `COc1ccc(C(=O)Nc2sc(-c3ccccc3)cc2C(N)=O)cc1` has a documented activation at 0.0825 µM of 244

Item CCc1ccccc1NC(=O)C1CCCCC1C(=O)O (stereo not shown) was tested on HssRS-dependent hrtAB expression; the reported activation at 0.0825 µM is 136

Test item `Fc1ccc(CNC(=S)Nc2ccc(Oc3ccccc3)cc2)cc1` ; HssRS-dependent hrtAB expression; reported activation at 0.0825 µM was 362

Entry Cc1cccc(C(=O)Nc2ccc(-c3nc4ccccc4o3)cc2)c1 [drawing 27] under HssRS-dependent hrtAB expression had activation at 0.0825 µM of 294

The observed activation at 0.0825 µM for `COC(=O)CCNc1nc(-c2ccc(Br)cc2)nc2ccccc12` when tested with HssRS-dependent hrtAB expression stands at 484

// molecule Cc1ccc(O)c(NC(=O)c2nn3c(c2Br)NC(c2ccco2)CC3C(F)(F)F)c1 (stereo not shown) [drawing 29] , assay HssRS-dependent hrtAB expression, activation at 0.0825 µM value: 307

HssRS-dependent hrtAB expression data for CC(/C=N/NC(=O)C1COc2ccccc2O1)=C\c1ccccc1 (stereo not shown) ; its activation at 0.0825 µM: 139

Record `O=C(Nc1ccncc1)c1ccc(COc2ccccc2Cl)cc1` / HssRS-dependent hrtAB expression, activation at 0.0825 µM recorded as 478

Reading of activation at 0.0825 µM for O=C(N/N=C/c1ccc(-c2ccc(Br)cc2)o1)C1COc2ccccc2O1 (stereo not shown) [drawing 48] with HssRS-dependent hrtAB expression: 133
